assay: Ex vivo biodistribution of 177Lu-labeled ligands in PC-3 tumor-bearing mice; conditions: mouse, small intestine, intravenous, 100 ug, 1 h pi, blocked (100 µg GRPR antagonist co-injected); read-out: Small intestine uptake
tissue uptake at 1 h values, listed per item
Provide the reading as a plain figure in %ID/g.

| MOLECULE | tissue uptake at 1 h / %ID/g |
| --- | --- |
| CC(C)C[C@H](NC(=O)[C@H](Cc1cnc[nH]1)N(C)C(=O)CNC(=O)[C@@H](NC(=O)[C@H](C)NC(=O)[C@H](Cc1c[nH]c2ccccc12)NC(=O)[C@H](CCC(N)=O)NC(=O)[C@@H](Cc1ccccc1)NC(=O)CN1CCC(NC(=O)CN2CCN(CC(=O)O)CCN(CC(=O)O)CCN(CC(=O)O)CC2)CC1)C(C)(C)C)C(=O)N1CC(F)(F)C[C@H]1C(N)=O [[^177Lu]Lu-LW02060, metal not drawn] | 0.23 |

Below: the item to evaluate.
Record summary for CC(C)C[C@@H](CN1CC(F)(F)C[C@H]1C(N)=O)NC(=O)[C@H](Cc1c[nH]cn1)NC(=O)CN(C)C(=O)[C@@H](NC(=O)[C@H](C)NC(=O)[C@H](Cc1c[nH]c2ccccc12)NC(=O)[C@H](CCC(N)=O)NC(=O)[C@@H](Cc1ccccc1)NC(=O)CN1CCC(NC(=O)CN2CCN(CC(=O)O)CCN(CC(=O)O)CCN(CC(=O)O)CC2)CC1)C(C)C [[^177Lu]Lu-LW02080, metal not drawn] : reported tissue uptake at 1 h = 0.48

###

experiment: Ex vivo biodistribution of 177Lu-labeled ligands in PC-3 tumor-bearing mice; settings: mouse, brain, intravenous, 100 ug, 1 h pi, blocked (100 µg GRPR antagonist co-injected); read-out: Brain uptake
MEASUREMENT_LABEL: tissue uptake at 1 h (%ID/g)
Provide the reading as a plain figure in %ID/g.

| MOLECULE | UOM | tissue uptake at 1 h |
| --- | --- | --- |
| CC(C)C[C@@H](CN1CC(F)(F)C[C@H]1C(N)=O)NC(=O)[C@H](Cc1c[nH]cn1)NC(=O)CN(C)C(=O)[C@@H](NC(=O)[C@H](C)NC(=O)[C@H](Cc1c[nH]c2ccccc12)NC(=O)[C@H](CCC(N)=O)NC(=O)[C@@H](Cc1ccccc1)NC(=O)CN1CCC(NC(=O)CN2CCN(CC(=O)O)CCN(CC(=O)O)CCN(CC(=O)O)CC2)CC1)C(C)C [[^177Lu]Lu-LW02080, metal not drawn] | %ID/g | 0.02 |

Below: the item to evaluate.
Record summary for CC(C)C[C@H](NC(=O)[C@H](Cc1cnc[nH]1)N(C)C(=O)CNC(=O)[C@@H](NC(=O)[C@H](C)NC(=O)[C@H](Cc1c[nH]c2ccccc12)NC(=O)[C@H](CCC(N)=O)NC(=O)[C@@H](Cc1ccccc1)NC(=O)CN1CCC(NC(=O)CN2CCN(CC(=O)O)CCN(CC(=O)O)CCN(CC(=O)O)CC2)CC1)C(C)(C)C)C(=O)N1CC(F)(F)C[C@H]1C(N)=O [[^177Lu]Lu-LW02060, metal not drawn] : reported tissue uptake at 1 h = 0.02

###

test: Ex vivo biodistribution of 177Lu-labeled ligands in PC-3 tumor-bearing mice; settings: mouse, stomach, intravenous, 120 h pi, n = 5; read-out: Stomach uptake
tissue uptake at 120 h values, listed per item
Provide the reading as a plain figure in %ID/g.

| COMPOUND | UOM | VALUE_REPORTED |
| --- | --- | --- |
| CC(C)C[C@@H](CN1CC(F)(F)C[C@H]1C(N)=O)NC(=O)[C@H](Cc1c[nH]cn1)NC(=O)CN(C)C(=O)[C@@H](NC(=O)[C@H](C)NC(=O)[C@H](Cc1c[nH]c2ccccc12)NC(=O)[C@H](CCC(N)=O)NC(=O)[C@@H](Cc1ccccc1)NC(=O)CN1CCC(NC(=O)CN2CCN(CC(=O)O)CCN(CC(=O)O)CCN(CC(=O)O)CC2)CC1)C(C)C [[^177Lu]Lu-LW02080, metal not drawn] | %ID/g | 0.01 |

Below: the item to evaluate.
Record summary for CC(C)C[C@H](NC(=O)[C@H](Cc1cnc[nH]1)N(C)C(=O)CNC(=O)[C@@H](NC(=O)[C@H](C)NC(=O)[C@H](Cc1c[nH]c2ccccc12)NC(=O)[C@H](CCC(N)=O)NC(=O)[C@@H](Cc1ccccc1)NC(=O)CN1CCC(NC(=O)CN2CCN(CC(=O)O)CCN(CC(=O)O)CCN(CC(=O)O)CC2)CC1)C(C)(C)C)C(=O)N1CC(F)(F)C[C@H]1C(N)=O [[^177Lu]Lu-LW02060, metal not drawn] : reported tissue uptake at 120 h = 0.03

###

tissue uptake at 24 h values, listed per item
test: Ex vivo biodistribution of 177Lu-labeled ligands in PC-3 tumor-bearing mice; conditions: mouse, muscle, intravenous, 24 h pi, n = 5; read-out: Muscle uptake
Provide the reading as a plain figure in %ID/g.

| COMPOUND | VALUE_REPORTED |
| --- | --- |
| CC(C)C[C@H](NC(=O)[C@H](Cc1cnc[nH]1)N(C)C(=O)CNC(=O)[C@@H](NC(=O)[C@H](C)NC(=O)[C@H](Cc1c[nH]c2ccccc12)NC(=O)[C@H](CCC(N)=O)NC(=O)[C@@H](Cc1ccccc1)NC(=O)CN1CCC(NC(=O)CN2CCN(CC(=O)O)CCN(CC(=O)O)CCN(CC(=O)O)CC2)CC1)C(C)(C)C)C(=O)N1CC(F)(F)C[C@H]1C(N)=O [[^177Lu]Lu-LW02060, metal not drawn] | 0.01 |

Below: the item to evaluate.
Record summary for CC(C)C[C@@H](CN1CC(F)(F)C[C@H]1C(N)=O)NC(=O)[C@H](Cc1c[nH]cn1)NC(=O)CN(C)C(=O)[C@@H](NC(=O)[C@H](C)NC(=O)[C@H](Cc1c[nH]c2ccccc12)NC(=O)[C@H](CCC(N)=O)NC(=O)[C@@H](Cc1ccccc1)NC(=O)CN1CCC(NC(=O)CN2CCN(CC(=O)O)CCN(CC(=O)O)CCN(CC(=O)O)CC2)CC1)C(C)C [[^177Lu]Lu-LW02080, metal not drawn] : reported tissue uptake at 24 h = 0.01

###

tissue to tissue ratio at 72 h values, listed per item
test: Ex vivo biodistribution of 177Lu-labeled ligands in PC-3 tumor-bearing mice; conditions: male, NOD.Cg-Rag1^tm1Mom Il2rg^tm1Wjl/SzJ (NRG), mouse, tumor/blood, iv, total radioactivity, 72 h pi, n = 5; read-out: Tumor/blood uptake ratio

| COMPOUND | tissue to tissue ratio at 72 h |
| --- | --- |
| CC(C)C[C@@H](CN1CC(F)(F)C[C@H]1C(N)=O)NC(=O)[C@H](Cc1c[nH]cn1)NC(=O)CN(C)C(=O)[C@@H](NC(=O)[C@H](C)NC(=O)[C@H](Cc1c[nH]c2ccccc12)NC(=O)[C@H](CCC(N)=O)NC(=O)[C@@H](Cc1ccccc1)NC(=O)CN1CCC(NC(=O)CN2CCN(CC(=O)O)CCN(CC(=O)O)CCN(CC(=O)O)CC2)CC1)C(C)C [[^177Lu]Lu-LW02080, metal not drawn] | 1300 |

Record summary for CC(C)C[C@H](NC(=O)[C@H](Cc1cnc[nH]1)N(C)C(=O)CNC(=O)[C@@H](NC(=O)[C@H](C)NC(=O)[C@H](Cc1c[nH]c2ccccc12)NC(=O)[C@H](CCC(N)=O)NC(=O)[C@@H](Cc1ccccc1)NC(=O)CN1CCC(NC(=O)CN2CCN(CC(=O)O)CCN(CC(=O)O)CCN(CC(=O)O)CC2)CC1)C(C)(C)C)C(=O)N1CC(F)(F)C[C@H]1C(N)=O [[^177Lu]Lu-LW02060, metal not drawn] : reported tissue to tissue ratio at 72 h = 1120

###

assay: Ex vivo biodistribution of 177Lu-labeled ligands in PC-3 tumor-bearing mice; conditions: mouse, lungs, intravenous, 24 h pi, n = 5; read-out: Lungs uptake
MEASUREMENT_LABEL: tissue uptake at 24 h (%ID/g)
Provide the reading as a plain figure in %ID/g.

| COMPOUND | tissue uptake at 24 h / %ID/g |
| --- | --- |
| CC(C)C[C@H](NC(=O)[C@H](Cc1cnc[nH]1)N(C)C(=O)CNC(=O)[C@@H](NC(=O)[C@H](C)NC(=O)[C@H](Cc1c[nH]c2ccccc12)NC(=O)[C@H](CCC(N)=O)NC(=O)[C@@H](Cc1ccccc1)NC(=O)CN1CCC(NC(=O)CN2CCN(CC(=O)O)CCN(CC(=O)O)CCN(CC(=O)O)CC2)CC1)C(C)(C)C)C(=O)N1CC(F)(F)C[C@H]1C(N)=O [[^177Lu]Lu-LW02060, metal not drawn] | 0.06 |

Below: the item to evaluate.
Record summary for CC(C)C[C@@H](CN1CC(F)(F)C[C@H]1C(N)=O)NC(=O)[C@H](Cc1c[nH]cn1)NC(=O)CN(C)C(=O)[C@@H](NC(=O)[C@H](C)NC(=O)[C@H](Cc1c[nH]c2ccccc12)NC(=O)[C@H](CCC(N)=O)NC(=O)[C@@H](Cc1ccccc1)NC(=O)CN1CCC(NC(=O)CN2CCN(CC(=O)O)CCN(CC(=O)O)CCN(CC(=O)O)CC2)CC1)C(C)C [[^177Lu]Lu-LW02080, metal not drawn] : reported tissue uptake at 24 h = 0.05
